# System: SARS-CoV-2-GHB-03021/2020
# experimentSummary: SARS-CoV-2 Infection Model in Huh7 Cells
# Format: cell-based
# details: Severe acute respiratory syndrome coronavirus 2, Huh-7, 96 h, SARS-CoV-2, day 4 p.i., MTS, numeric bounds
pEC50: −log10 of the molar value.
reportedProperty: pEC50

{"columns": ["compound", "pEC50"],
 "data": [
  ["O=C(c1ccccc1)c1c[nH]c(C(=O)N2C[C@@H]3CCC[C@@H]3[C@H]2C(=O)N[C@@H](C[C@@H]2CCNC2=O)C(=O)CO)c1", "< 4.30"],
  ["O=C(NCc1ccccc1)C(=O)[C@H](Cc1ccncc1)NC(=O)[C@@H]1CC2(CC2)CN1C(=O)c1cc2ccccc2[nH]1", "< 4.00"],
  ["COc1cccc2[nH]c(C(=O)N3C[C@@H]4CCC[C@@H]4[C@H]3C(=O)N[C@@H](C[C@@H]3CCNC3=O)C(=O)c3ncc[nH]3)cc12", "< 4.00"],
  ["O=C(NCc1ccccc1)C(=O)[C@H](C[C@@H]1CCNC1=O)NC(=O)[C@@H]1C[C@@H](C2CCCCC2)CN1C(=O)c1cc2ccccc2[nH]1", "< 4.00"],
  ["O=C(NCCCC(F)(F)F)C(=O)[C@H](C[C@@H]1CCNC1=O)NC(=O)[C@@H]1[C@H]2CCC[C@H]2CN1C(=O)c1cc2c(Cl)cc(Cl)cc2[nH]1", "< 5.00"],
  ["COc1cccc2[nH]c(C(=O)N3C[C@@H]4CCC[C@@H]4[C@H]3C(=O)N[C@@H](CN3C[C@H](O)CC3=O)C(=O)C(=O)NC3CC3)cc12", "< 5.00"]
]}

Asked: Any idea what its pEC50 is? The compound is COc1cccc2[nH]c(C(=O)N3C[C@@H]4CCC[C@@H]4[C@H]3C(=O)N[C@@H](C[C@@H]3CCNC3=O)C(=O)C(=O)N(C)C)cc12
Given back: < 4.30

Asked: Let us now turn to COc1cccc2[nH]c(C(=O)N3C[C@@H]4CCC[C@@H]4[C@H]3C(=O)N[C@H](C=O)CC3CCNS3(=O)=O)cc12 (some centres unmarked)
Given back: < 5.00

Asked: Moving on to the next compound: O=C(NC1CC1)C(=O)[C@H](C[C@@H]1CCNC1=O)NC(=O)[C@@H]1CC2(CCN1C(=O)c1cc3c(F)cccc3[nH]1)CC2
Given back: < 5.00

Asked: // same read-out, input: O=C(NCc1ccccc1)C(=O)[C@H](Cc1cc[nH]n1)NC(=O)[C@@H]1CC2(CC2)CN1C(=O)c1cc2ccccc2[nH]1
Given back: < 4.00

Asked: And then COc1cccc2[nH]c(C(=O)N3CCC4(CC4)C[C@H]3C(=O)N[C@@H](C[C@@H]3CCNC3=O)C(=O)C(=O)NC3CC3)cc12 , what is it?
Given back: < 5.00

---

# experimentSummary: in vitro
# details: human
Listed here are compounds together with their documented CC50.

Example entries and their recorded answers appear below.
{"columns": ["compound", "CC50"],
 "data": [
  ["COc1c(Cl)ccc2[nH]c(C(=O)N3C[C@@H]4CCC[C@@H]4[C@H]3C(=O)N[C@@H](C[C@@H]3CCNC3=O)C(=O)CO)cc12", "> 100 µM"],
  ["COc1cccc2[nH]c(C(=O)N3CC4(CC4)C[C@H]3C(=O)N[C@@H](C[C@@H]3CCCNC3=O)C(=O)CO)cc12", "> 100 µM"],
  ["COc1cccc2[nH]c(C(=O)N3C[C@H](C(F)(F)F)C[C@H]3C(=O)N[C@@H](C[C@@H]3CCCNC3=O)C(=O)CO)cc12", "> 100 µM"],
  ["O=C(NCc1ccccc1)C(=O)[C@H](C[C@@H]1CCNC1=O)NC(=O)[C@@H]1C[C@]2(CN1C(=O)c1cc3ccccc3[nH]1)CC2(F)F", "> 100 µM"],
  ["CC(C)[C@@H]1C[C@@H](C(=O)NC(C[C@@H]2CCNC2=O)C(=O)C(=O)NCc2ccccc2)N(C(=O)c2cc3ccccc3[nH]2)C1 (stereo partly drawn)", "> 10 µM"]
]}

Now for the compound whose CC50 we want.
Asked: For the compound COc1nccc2[nH]c(C(=O)N3C[C@@H]4CCC[C@@H]4[C@H]3C(=O)N[C@@H](C[C@@H]3CCNC3=O)C(=O)CO)cc12 , what CC50 is on record?
Given back: > 100 µM

---

# testedOn: UniProtKB P03303
# experimentSummary: HRV3C protease assay (duplex, SAMDI-MS)
# Format: biochemical, HRV
# details: HRV3C, 30 mins preincubation, class symbols; read-out: HRV IC50
pIC50: −log10 of the molar value.
pIC50: recorded values

{"columns": ["compound", "pIC50"],
 "data": [
  ["COc1cccc2[nH]c(C(=O)N3C[C@@H]4CCC[C@@H]4[C@H]3C(=O)N[C@@H](C[C@@H]3CCNC3=O)C(=O)CO)nc12", "4.00 to 4.70"]
]}

Asked: What value of pIC50 has been recorded for this entry: COc1cccc2[nH]c(C(=O)N3C[C@@H]4CCC[C@@H]4[C@H]3C(=O)N[C@H](C=O)C[C@@H]3CCNC3=O)cc12 [Compound 14A]
Given back: 5.70 to 6.70

Asked: Next record, please: O=C(NCc1ccccc1)C(=O)C(C[C@@H]1CCNC1=O)NC(=O)[C@@H]1C[C@@H](C(F)(F)F)CN1C(=O)c1cc2ccccc2[nH]1 (stereo partly drawn)
Given back: 4.70 to 5.70

---

# System: SARS-CoV-2-GHB-03021/2020
# experimentSummary: microbe, parasite or virus in culture
# Format: cell-based
# details: Severe acute respiratory syndrome coronavirus 2, Vero C1008, 96 h; read-out: VeroE6 + CP (EC50)
pEC50: −log10 of the molar value.
reportedProperty: pEC50

{"columns": ["molecule", "pEC50"],
 "data": [
  ["COc1cccc2[nH]c(C(=O)N3C[C@H]4[C@@H]([C@H]3C(=O)N[C@@H](C[C@@H]3CCCNC3=O)C(=O)COCc3ccccc3)C4(C)C)cc12 [Compound 49A]", "5.00 to 6.00"],
  ["O=C1NCC[C@H]1C[C@H](NC(=O)[C@@H]1[C@H]2CCC[C@H]2CN1C(=O)c1cc2c(Cl)ccc(-c3ccccc3)c2[nH]1)C(=O)CO", "5.00 to 6.00"]
]}

Continue with the next molecule.
Asked: Entry COc1cccc2[nH]c(C(=O)N3C[C@]4(C[C@H]3C(=O)N[C@@H](C[C@@H]3CCCNC3=O)C(=O)C(=O)NC(C)C)CC4(F)F)cc12 : reported pEC50 = ?
Given back: 5.00 to 6.00

---

# Test system: SARS-CoV-2-GHB-03021/2020
# experimentSummary: microbe, parasite or virus in culture
# Format: cell-based
# details: Severe acute respiratory syndrome coronavirus 2, Vero C1008, 96 h; read-out: VeroE6 + CP (EC50)
pEC50: −log10 of the molar value.
reportedProperty: pEC50

In the examples that follow, each entry is paired with its recorded pEC50.
{"columns": ["chemSmiles", "pEC50"],
 "data": [
  ["O=C(NCCOCC1CCCC1)C(=O)[C@H](C[C@@H]1CCNC1=O)NC(=O)[C@@H]1[C@H]2CCC[C@H]2CN1C(=O)c1cc2c(Cl)cc(Cl)cc2[nH]1", "> 6.00"],
  ["O=C1NCC[C@H]1C[C@H](NC(=O)[C@@H]1[C@H]2CCC[C@H]2CN1C(=O)c1cc2c(Cl)ccc(Cl)c2[nH]1)C(=O)CO", "> 6.00"]
]}

Now for another entry.
Asked: Could you share which pEC50 value was measured for C=C[C@@H]1C[C@@H](C(=O)N[C@@H](C[C@@H]2CCNC2=O)C(=O)C(=O)NCc2ccccc2)N(C(=O)c2cc3ccccc3[nH]2)C1 ?
Given back: 5.00 to 6.00

---

# experimentSummary: Cytotoxicity plates without OC43 virus (cell-titer-glo)
# Assay type: cell-based, human
# details: human; HeLa cells without OC43 virus, class symbols
Here the recorded CC50 at 6 days is given for each entry.

Solved entries:
{"columns": ["molecule", "CC50 at 6 days"],
 "data": [
  ["COc1cccc2[nH]c(C(=O)N3C[C@@H]4CCC[C@@H]4[C@H]3C(=O)N[C@@H](C[C@@H]3CCNC3=O)C(=O)C(=O)NC3CCOCC3)cc12 [Compound 104]", "> 10 µM"],
  ["O=C1NCC[C@H]1C[C@H](NC(=O)[C@@H]1[C@@H]2[C@H](CN1C(=O)c1cc3c(Cl)cc(Cl)cc3[nH]1)[C@@H]1C=C[C@H]2C1)C(=O)CO [Compound 136]", "> 10 µM"]
]}

Please turn your attention to the following entry.
Asked: Consider the molecule shown here: O=C(NC1CC1)C(=O)C(CC1CC2(CC2)NC1=O)NC(=O)[C@@H]1[C@H]2CCC[C@H]2CN1C(=O)c1cc2c(Cl)cc(Cl)cc2[nH]1 (single isomer, unassigned) [Compound 116A] What is its recorded CC50 at 6 days?
Given back: > 10 µM

Values compiled from patent US11952365B2.
